Attribution: patent US8846719B2

- ASSAYED_SYSTEM: human GABA A receptor α5β3γ2 (Homo sapiens (Human), UniProt P18507+P31644)
- PROTOCOL_TEXT: [3H]flumazenil competition binding assay, human GABA A α5β3γ2 receptors expressed in HEK293 cells
- APPLIED_CONDITIONS: human receptor; displacement of [3H]flumazenil (0.5 nM); means of two determinations; read-out: hKi GABAAa5
pKi: −log10 of the molar value.
Property: pKi; scope: individual compounds
MEASURE_NAME: pKi

CC[C@H](CO)NC(=O)c1ccc(OCc2c(-c3ccccc3)noc2C)nc1 = 8.64
O=C(NC(CO)CO)c1ccc(OCc2conc2-c2ccc(F)cc2)nc1 = 7.67
CC(O)CNC(=O)c1ccc(OCc2conc2-c2ccc(Cl)cc2)nc1 (stereo not drawn) = 8.15
Cc1onc(-c2ccccc2)c1COc1ccc(C(=O)NCC(F)F)cn1 = 8.70
Cc1onc(-c2ccccc2)c1COc1ccc(C(=O)N[C@@H]2CCOC(C)(C)C2)cn1 (racemic) = 8.10
COC(=O)c1ccc(NCc2c(-c3ccccc3)noc2C)nc1 = 7.56
COC(=O)c1ccc(OCc2c(-c3ccc(F)cn3)noc2C)nc1 = 8.70
Cc1onc(-c2ccc(F)cn2)c1COc1ccc(C(=O)NCC2CC2)cn1 = 9.40
CNC(=O)c1ccc(OCc2c(-c3ccc(F)cn3)noc2C)nc1 = 9.22

----------
- ASSAYED_SYSTEM: human GABA A receptor α5β3γ2 (Homo sapiens (Human), UniProt P18507+P31644)
- PROTOCOL_TEXT: [3H]flumazenil competition binding assay, human GABA A α5β3γ2 receptors expressed in HEK293 cells
- APPLIED_CONDITIONS: human receptor; displacement of [3H]flumazenil (0.5 nM); means of two determinations; read-out: hKi GABAAa5
Property: Ki; scope: individual molecules
MEASURE_NAME: Ki (nM)

Cc1onc(-c2ccccc2)c1COc1ccc(C(=O)NCCCO)cn1 = 2.2
Cc1onc(-c2ccccc2)c1CNc1ccc(C(=O)NC(C)C)cn1 = 5.9
Cc1onc(-c2ccccc2)c1COc1ccc([S+](C)[O-])cn1 (stereo not drawn) = 28.1
Cc1onc(-c2cccc(Cl)c2)c1COc1ccc(C(=O)NCC2CC2)cn1 = 8.1
O=C(NCC1CC1)c1ccc(OCc2c(-c3ccc(F)cc3)noc2C(F)(F)F)nc1 = 22.5
CNC(=O)c1ccc(OCc2c(-c3ccccc3)noc2C(F)(F)F)nc1 = 24.3
Cc1onc(-c2ccccc2)c1COc1ccc(C(=O)N[C@@H](C)CO)cn1 = 0.7
Cc1onc(-c2cccc(Cl)c2)c1COc1ccc(C(=O)NCC(F)(F)F)cn1 = 7.8
O=C(NCC(F)(F)F)c1ccc(OCc2conc2-c2ccc(Cl)cc2)nc1 = 15.1

----------
- ASSAYED_SYSTEM: human GABA A receptor α5β3γ2 (Homo sapiens (Human), UniProt P18507+P31644)
- PROTOCOL_TEXT: [3H]flumazenil competition binding assay, human GABA A α5β3γ2 receptors expressed in HEK293 cells
- APPLIED_CONDITIONS: human receptor; displacement of [3H]flumazenil (0.5 nM); means of two determinations; read-out: hKi GABAAa5
MEASURE_NAME: Ki (µM)

Cc1onc(-c2ccc(F)c(F)c2)c1COc1ccc(C(=O)NCC(C)(C)CO)cn1 [Example 268] = 0.0033
Cc1onc(-c2cccc(F)c2)c1COc1ccc(C(=O)NCC(F)(F)F)cn1 [Example 89] = 0.003
Cc1onc(-c2ccncc2)c1COc1ccc(C(=O)N2CCS(=O)(=O)CC2)cn1 [Example 153] = 0.0657
Cc1onc(-c2ccccc2)c1COc1ccc(C(=O)NC2(C)CC2)cn1 [Example 239] = 0.0036
Cc1onc(-c2ccc(F)cc2)c1COc1ccc(C(=O)N2CCOCC2)cn1 [Example 110] = 0.013
Cc1onc(-c2ccccc2)c1COc1cc(C(F)(F)F)c(C(=O)O)cn1 [Example 61] = 0.0184
C[C@@H](CO)NC(=O)c1ccc(OCc2conc2-c2ccc(F)cc2)nc1 [Example 327] = 0.0139
Cc1onc(-c2ccccc2)c1CNc1ccc(C(=O)NCCN2CCCC2=O)cn1 [Example 163] = 0.0373
Cc1onc(-c2ccccc2)c1COc1ccc(C(=O)NCC(O)CO)cn1 (stereo not drawn) [Example 218] = 0.002
